Target chain: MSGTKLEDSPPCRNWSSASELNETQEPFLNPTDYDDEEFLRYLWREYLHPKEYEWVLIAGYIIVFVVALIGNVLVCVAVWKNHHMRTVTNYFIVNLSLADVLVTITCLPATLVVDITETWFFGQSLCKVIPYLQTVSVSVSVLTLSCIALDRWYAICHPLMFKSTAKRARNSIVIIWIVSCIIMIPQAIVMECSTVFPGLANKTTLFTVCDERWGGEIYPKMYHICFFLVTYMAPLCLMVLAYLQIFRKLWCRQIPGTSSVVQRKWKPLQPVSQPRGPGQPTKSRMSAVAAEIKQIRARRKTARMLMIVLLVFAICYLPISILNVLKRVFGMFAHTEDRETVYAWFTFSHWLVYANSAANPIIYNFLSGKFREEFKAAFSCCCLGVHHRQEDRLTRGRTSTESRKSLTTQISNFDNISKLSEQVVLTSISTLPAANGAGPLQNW
Recorded metric: Ki (nM)

Record smiles	Endpoint result
COc1ccc(CNC(=O)c2cc(-c3cncc(C)c3)cnc2-n2ccc(C)n2)cc1Cl	0.95
COc1ccc(CNC(=O)c2cc(-c3cncc(Cl)c3)cnc2-c2ccccc2)nc1OC	0.45

a = COc1ccc(CNC(=O)c2cc(-c3cncc(C)c3)cnc2-c2cccc(F)c2)nc1OC
b = COc1ccc(CNC(=O)c2cc(-c3cncc(C)c3)cnc2N2CCOCC2)nc1OC
## Input Field: lower recorded Ki (choose a or b ) Mark your selection by writing its label.
## Output a
